# study target: T1, Alexa Fluor-488-labeled human MIF (human, UniProt P14174 2-115, Alexa Fluor-488 (positions not stated))
# T1 construct: also called Alexa-MIF
# T1 sequence (P14174 2-115): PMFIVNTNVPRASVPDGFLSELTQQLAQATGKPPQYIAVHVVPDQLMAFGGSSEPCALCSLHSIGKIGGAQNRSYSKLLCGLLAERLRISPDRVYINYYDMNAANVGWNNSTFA
# measurement protocol: other fluorescence titration; 10 nM Alexa-MIF titrated with CXCL4L1; 20 mM sodium phosphate, pH 7.2, 1% HFIP; 30 min incubation, RT; emission at 519 nm; apparent KD
# reported conditions: both partners purified
endpoint label: pKd
Expect pKd as a plain number equal to -log10 of the molar concentration.

Would you mind telling me what pKd value was observed for CXCL4L1 of the fluorescence spectroscopic titration (preparation not stated) (natural protein, human, CXCL4L1, human; Either m5 or m6; stock solution in 20 mM sodium phosphate buffer, pH 7.2) EAEEDGDLQCLCVKTTSQVRPRHITSLEVIKAGPHCPTAQLIATLKNGRKICLDLQALLYKKIIKEHLES ? 7.06
